# MEASURED_ON: P-selectin-lg fusion protein (Homo sapiens, UniProt P16109)
# Construct: Each selectin-lg contains the lectin domain, epidermal growth factor domain, and one (L-selectin-lg), two (P-selectin-lg) or six (E-selectin-lg) complement regulatory repeats; made in house
# EXPERIMENTAL_PROTOCOL: Competition ELISA: binding of P-selectin-Ig to immobilized BSA-sLe^x
# COND: selected assays, in vitro; read-out: IC50, blocking activity against P-selectin
# Procedure: Selectin-lg fusion proteins are recombinant chimeric molecules containing extracellular regions of selectins coupled to the hinge, CH2, and CH3 regions of human IgG1 (Aruffo, A., et al., Cell, 67:35, 1991; Walz, G., et al., Science, 250:1132, 1990). […] IC50 values were calculated by fitting binding data to the equation: fraction of maximal binding=IC50 […] using nonlinear least squares analysis software (Origin, Microcal Inc, Northampton, Mass.). […]
MEASURED_ENDPOINT: IC50 (µM)
Numbers only, in µM.

// O=P(O)(O)O[C@@H]1[C@@H](OP(=O)(O)O)[C@H](OP(=O)(O)O)[C@H](O)[C@H](OP(=O)(O)O)[C@H]1OP(=O)(O)O [InsP5, inositol pentakisphosphate] : IC50 value = 940

###

# MEASURED_ON: L-selectin-lg fusion protein (Homo sapiens)
# Construct: Each selectin-lg contains the lectin domain, epidermal growth factor domain, and one (L-selectin-lg), two (P-selectin-lg) or six (E-selectin-lg) complement regulatory repeats; made in house
# EXPERIMENTAL_PROTOCOL: Competition ELISA: binding of L-selectin-Ig to immobilized BSA-sLe^x
MEASURED_ENDPOINT: IC50 (µM)
Answers are plain numbers, in µM.

L-selectin-lg fusion protein (Homo sapiens) IC50 of O=P(O)(O)O[C@H]1[C@H](OP(=O)(O)O)[C@@H](OP(=O)(O)O)[C@H](OP(=O)(O)O)[C@@H](OP(=O)(O)O)[C@H]1OP(=O)(O)O [InsP6, myo-inositol hexakisphosphate] is 3.1

###

# MEASURED_ON: L-selectin-lg fusion protein (Homo sapiens)
# Construct: Each selectin-lg contains the lectin domain, epidermal growth factor domain, and one (L-selectin-lg), two (P-selectin-lg) or six (E-selectin-lg) complement regulatory repeats; made in house
# EXPERIMENTAL_PROTOCOL: Competition ELISA: binding of L-selectin-Ig to immobilized BSA-sLe^x
# COND: preliminary competition ELISA, single experiment; read-out: IC50, L-selectin-Ig
MEASURED_ENDPOINT: pIC50
Answers are plain numbers, as −log10 of the molar value.

So for O=P(O)(O)O[C@@H]1[C@@H](O)[C@@H](O)[C@@H](OP(=O)(O)O)[C@H](OP(=O)(O)O)[C@H]1O (relative stereo) [D, L-isomer mixture of Ins1,4,6 P3] , the logged pIC50 turned out to be 3.64
